# Test system: OVCAR-4
# TEST_PROTOCOL: NCI tumour cell line growth inhibition, 48 h
Activity calls are given as the source filed them. No stated cut-off is given here; in the data, active = GI50 up to about 1.1 µM and inactive = higher.

{"SMILES_REPR": "COCOc1cc(OC)ccc1C=O", "EXPERIMENTAL_SYSTEM": "OVCAR-4", "GI50": "78 µM (inactive)"}
{"SMILES_REPR": "CC[P+](C)(C)CC", "EXPERIMENTAL_SYSTEM": "OVCAR-4", "GI50": "> 100 µM (inactive)"}
{"SMILES_REPR": "O=C1C=CC(=O)c2c1c1c(c3c2C2c4ccccc4C3c3ccccc32)C2c3ccccc3C1c1ccccc12", "EXPERIMENTAL_SYSTEM": "OVCAR-4", "GI50": "2.04 µM (inactive)"}
